# Target Entity: Cytochrome P450 2C9 (Homo sapiens, UniProt P11712)
# Sequence (P11712 whole entry): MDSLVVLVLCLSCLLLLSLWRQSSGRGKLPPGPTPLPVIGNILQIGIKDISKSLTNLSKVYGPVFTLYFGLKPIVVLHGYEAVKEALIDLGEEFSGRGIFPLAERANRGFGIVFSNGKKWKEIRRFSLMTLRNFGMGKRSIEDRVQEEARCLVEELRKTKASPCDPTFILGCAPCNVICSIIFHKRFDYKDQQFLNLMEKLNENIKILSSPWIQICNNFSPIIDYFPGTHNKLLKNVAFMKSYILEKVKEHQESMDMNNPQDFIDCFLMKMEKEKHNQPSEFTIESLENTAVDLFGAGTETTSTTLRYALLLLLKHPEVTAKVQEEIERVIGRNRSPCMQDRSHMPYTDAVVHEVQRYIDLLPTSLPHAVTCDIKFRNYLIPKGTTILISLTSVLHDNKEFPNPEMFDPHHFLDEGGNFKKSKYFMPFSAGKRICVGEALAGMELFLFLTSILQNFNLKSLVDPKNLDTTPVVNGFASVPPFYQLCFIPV
Experimental Endpoint: IC50

IN: Name the recorded IC50 for N#Cc1cc(OC(F)(F)F)cc(-c2nc(-c3ccc4c(c3)cc3n4CCC3CC(=O)O)no2)c1 (single isomer, unassigned; enantiomer 2) .
OUT: > 30 µM

###

# Measurement Notes: Half life in mouse liver microsome
# Assay type: ADME
# Measurement Parameters: liver microsomes
Experimental Endpoint: half-life

IN: Name the recorded half-life for N#Cc1cc(OC(F)(F)F)cc(-c2nc(-c3ccc4[nH]c5c(c4c3)CCC5CC(=O)O)no2)c1 (single isomer, unassigned) .
OUT: > 1 h

###

# Target Entity: Sphingosine 1-phosphate receptor 1 (Mus musculus, UniProt O08530)
# Sequence (O08530 whole entry): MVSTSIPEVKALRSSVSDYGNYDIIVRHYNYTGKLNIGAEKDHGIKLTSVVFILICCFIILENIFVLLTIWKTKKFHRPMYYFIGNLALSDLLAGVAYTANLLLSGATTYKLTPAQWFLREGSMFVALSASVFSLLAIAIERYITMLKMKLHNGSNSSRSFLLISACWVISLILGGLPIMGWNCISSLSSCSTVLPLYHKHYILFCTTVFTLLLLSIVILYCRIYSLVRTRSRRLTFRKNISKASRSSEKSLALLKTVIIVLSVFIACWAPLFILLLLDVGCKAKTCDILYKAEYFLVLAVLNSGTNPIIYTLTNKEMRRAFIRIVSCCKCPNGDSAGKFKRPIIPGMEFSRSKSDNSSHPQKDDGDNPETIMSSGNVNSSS
# Measurement Notes: Agonist activity against mouse S1P1 assessed as accumulation of cAMP by HTRF assay
Please provide measured pEC50 for the entries that follow.
Interpret pEC50 as the negative base-10 log of the concentration measured in mol/L.

IN: Name the recorded pEC50 for N#Cc1cc(OC(F)(F)F)cc(-c2nc(-c3ccc4[nH]c5c(c4c3)CCC5CC(=O)O)no2)c1 (single isomer, unassigned) .
OUT: 8.59

IN: Name the recorded pEC50 for N#Cc1cc(OC(F)(F)F)cc(-c2nc(-c3ccc4[nH]c5c(c4c3)CCC5CC(=O)O)no2)c1 (stereo in doubt; 17a) .
OUT: 8.08

IN: Name the recorded pEC50 for N#Cc1cc(OC(F)(F)F)cc(-c2nc(-c3ccc4c(c3)cc3n4CCC3CC(=O)O)no2)c1 (stereo in doubt; 23a) .
OUT: 8.26

IN: Name the recorded pEC50 for N#Cc1cc(OC(F)(F)F)cc(-c2nc(-c3ccc4c(c3)cc3n4CCC3CC(=O)O)no2)c1 (single isomer, unassigned; enantiomer 2) .
OUT: 9.28

###

Please provide measured pEC50 for the entries that follow.
# Target Entity: Sphingosine 1-phosphate receptor 5 (Homo sapiens)
# Sequence (Q9H228 whole entry): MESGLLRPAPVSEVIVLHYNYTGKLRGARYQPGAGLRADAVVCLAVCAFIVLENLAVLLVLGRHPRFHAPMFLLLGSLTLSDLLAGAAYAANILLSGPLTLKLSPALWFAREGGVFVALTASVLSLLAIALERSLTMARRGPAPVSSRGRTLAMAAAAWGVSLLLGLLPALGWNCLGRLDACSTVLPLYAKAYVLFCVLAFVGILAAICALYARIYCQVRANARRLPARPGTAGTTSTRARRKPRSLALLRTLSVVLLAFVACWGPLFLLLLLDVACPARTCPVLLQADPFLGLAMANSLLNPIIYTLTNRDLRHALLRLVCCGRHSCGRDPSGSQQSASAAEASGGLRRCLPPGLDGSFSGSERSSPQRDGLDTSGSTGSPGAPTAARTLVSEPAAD
# Measurement Notes: Agonist activity against human S1P5 by beta arrestin recruitment assay
# Assay type: functional
Interpret pEC50 as the negative base-10 log of the concentration measured in mol/L.

IN: Give pEC50 (Sphingosine 1-phosphate receptor 5 (Homo sapiens)) of the following compound: N#Cc1cc(OC(F)(F)F)cc(-c2nc(-c3ccc4c(c3)cc3n4CCC3CC(=O)O)no2)c1 (stereo in doubt; 23a)
OUT: 6.54

IN: Give pEC50 (Sphingosine 1-phosphate receptor 5 (Homo sapiens)) of the following compound: N#Cc1cc(OC(F)(F)F)cc(-c2nc(-c3ccc4c(c3)cc3n4CCC3CC(=O)O)no2)c1 (single isomer, unassigned; enantiomer 2)
OUT: 7.68

IN: Give pEC50 (Sphingosine 1-phosphate receptor 5 (Homo sapiens)) of the following compound: N#Cc1cc(OC(F)(F)F)cc(-c2nc(-c3ccc4[nH]c5c(c4c3)CCC5CC(=O)O)no2)c1 (stereo in doubt; 17a)
OUT: 7.96

IN: Give pEC50 (Sphingosine 1-phosphate receptor 5 (Homo sapiens)) of the following compound: N#Cc1cc(OC(F)(F)F)cc(-c2nc(-c3ccc4[nH]c5c(c4c3)CCC5CC(=O)O)no2)c1 (single isomer, unassigned)
OUT: 7.82

###

# Measurement Notes: Cmax in Sprague-Dawley rat in Sprague-Dawley rat at 2 mg/kg, iv and 3 mg/kg, po
# Assay type: ADME, organism-based
# Measurement Parameters: in vivo
Experimental Endpoint: Cmax (ng/mL)
Report as a plain number; the unit ng/mL is understood.

IN: Name the recorded Cmax for N#Cc1cc(OC(F)(F)F)cc(-c2nc(-c3ccc4[nH]c5c(c4c3)CCC5CC(=O)O)no2)c1 (single isomer, unassigned) .
OUT: 1400

IN: Name the recorded Cmax for N#Cc1cc(OC(F)(F)F)cc(-c2nc(-c3ccc4c(c3)cc3n4CCC3CC(=O)O)no2)c1 (single isomer, unassigned; enantiomer 2) .
OUT: 13300
